# Target entity: T1, DENV-IV抗原(一种NS1蛋白，购自菲鹏) (dengue virus serotype 4 (DENV-IV), UniProt P09866 775-1126, limits assumed)
# T1 construct: also called DENV-IV antigen
# T1 sequence (looked up): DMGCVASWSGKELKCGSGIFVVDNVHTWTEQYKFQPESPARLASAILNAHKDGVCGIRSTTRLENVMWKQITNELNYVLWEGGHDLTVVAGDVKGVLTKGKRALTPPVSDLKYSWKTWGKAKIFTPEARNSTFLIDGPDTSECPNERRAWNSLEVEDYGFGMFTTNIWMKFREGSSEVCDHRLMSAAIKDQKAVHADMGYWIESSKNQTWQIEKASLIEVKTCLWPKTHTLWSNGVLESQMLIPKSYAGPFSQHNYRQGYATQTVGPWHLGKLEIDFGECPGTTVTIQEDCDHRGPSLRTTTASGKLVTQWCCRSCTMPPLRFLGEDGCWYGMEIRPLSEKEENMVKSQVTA
Item-by-item account of Kd
Property label: Kd (nM)

{"Binder": "DF-5M32RMb3 (antibody, mouse IgG1, kappa, V domains shown, also called DF-8F13RMb3) VH: QVQLQQSGAELARPGASVKLSCKASGYTFLNYWMQWVKQRPGQGLEWIGAIYPGDGDTRYTQNFKGKAALTADKSSSTAYMQLSSLASEDSAVYYCATGTEGILDYWGQGTSVTVSS VL: DAVMTQTPLTLSVLIGQPASLSCKSSQSLLESDGKTYLNWLFQRPGQSPKRLIYLVSKLESGVPDRFTGSGSGTEFTLKISRVEAEDLGVYYCWQATHHPLTFGTGTNLELKR", "Observed": 63.6}
{"Binder": "DF-5M32RMb2 (antibody, mouse IgG1, kappa, V domains shown, also called DF-8F13RMb2) VH: QVQLQQSGAELARPGASVKLSCKASGYTFLNYWMQWVKQRPGQGLEWIGAIYPGDGDTRYTQNFKGKAALTADKSSSTAYMQLSSLASEDSAVYYCATGTEGLLDYWGQGTSVTVSS VL: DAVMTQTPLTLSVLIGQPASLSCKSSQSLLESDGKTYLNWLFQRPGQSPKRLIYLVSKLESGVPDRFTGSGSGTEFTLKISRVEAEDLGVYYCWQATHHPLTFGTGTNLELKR", "Observed": 57.8}
{"Binder": "DF-5M32RMb1 (antibody, mouse IgG1, kappa, V domains shown, also called Anti-DF 5M32; Anti-DF 5M32单克隆抗体 (recombinant)) VH: QVQLQQSGAELARPGASVKLSCKASGYTFINYWMQWVKQRPGQGLEWIGAIYPGDGDTRYTQNFKGKAALTADKSSSTAYMQLSSLASEDSAVYYCATGTEGILDYWGQGTSVTVSS VL: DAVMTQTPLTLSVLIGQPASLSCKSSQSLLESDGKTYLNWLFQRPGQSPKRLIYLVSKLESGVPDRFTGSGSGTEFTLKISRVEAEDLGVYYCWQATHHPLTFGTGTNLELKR", "Observed": 59.6}
{"Binder": "DF-5M32RMb4 (antibody, mouse IgG1, kappa, V domains shown, also called DF-8F13RMb4) VH: QVQLQQSGAELARPGASVKLSCKASGYTFINYWMQWVKQRPGQGLEWIGAIYPGDGDTRYTQNFKGKAALTADKSSSTAYMQLSSLASEDSAVYYCATGTEGLLDYWGQGTSVTVSS VL: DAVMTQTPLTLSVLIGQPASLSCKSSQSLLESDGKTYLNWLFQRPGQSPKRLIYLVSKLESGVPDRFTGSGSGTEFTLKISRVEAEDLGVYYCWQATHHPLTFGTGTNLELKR", "Observed": 52.9}
